biological target: Rap guanine nucleotide exchange factor 4 (Homo sapiens) (UniProt Q8WZA2); assay: Confirmatory qHTS for antagonist of cAMP-regulated guanine nucleotide exchange factor 4 (EPAC2) (AID 1645885); conditions: EPAC2 Rap1B-BODIPY-GDP exchange fluorescence, biochemical; series mostly up to 12.7 µM; also: nearly all actives have a fitted effect of over 25% in size
Sequence (Q8WZA2 whole entry, looked up): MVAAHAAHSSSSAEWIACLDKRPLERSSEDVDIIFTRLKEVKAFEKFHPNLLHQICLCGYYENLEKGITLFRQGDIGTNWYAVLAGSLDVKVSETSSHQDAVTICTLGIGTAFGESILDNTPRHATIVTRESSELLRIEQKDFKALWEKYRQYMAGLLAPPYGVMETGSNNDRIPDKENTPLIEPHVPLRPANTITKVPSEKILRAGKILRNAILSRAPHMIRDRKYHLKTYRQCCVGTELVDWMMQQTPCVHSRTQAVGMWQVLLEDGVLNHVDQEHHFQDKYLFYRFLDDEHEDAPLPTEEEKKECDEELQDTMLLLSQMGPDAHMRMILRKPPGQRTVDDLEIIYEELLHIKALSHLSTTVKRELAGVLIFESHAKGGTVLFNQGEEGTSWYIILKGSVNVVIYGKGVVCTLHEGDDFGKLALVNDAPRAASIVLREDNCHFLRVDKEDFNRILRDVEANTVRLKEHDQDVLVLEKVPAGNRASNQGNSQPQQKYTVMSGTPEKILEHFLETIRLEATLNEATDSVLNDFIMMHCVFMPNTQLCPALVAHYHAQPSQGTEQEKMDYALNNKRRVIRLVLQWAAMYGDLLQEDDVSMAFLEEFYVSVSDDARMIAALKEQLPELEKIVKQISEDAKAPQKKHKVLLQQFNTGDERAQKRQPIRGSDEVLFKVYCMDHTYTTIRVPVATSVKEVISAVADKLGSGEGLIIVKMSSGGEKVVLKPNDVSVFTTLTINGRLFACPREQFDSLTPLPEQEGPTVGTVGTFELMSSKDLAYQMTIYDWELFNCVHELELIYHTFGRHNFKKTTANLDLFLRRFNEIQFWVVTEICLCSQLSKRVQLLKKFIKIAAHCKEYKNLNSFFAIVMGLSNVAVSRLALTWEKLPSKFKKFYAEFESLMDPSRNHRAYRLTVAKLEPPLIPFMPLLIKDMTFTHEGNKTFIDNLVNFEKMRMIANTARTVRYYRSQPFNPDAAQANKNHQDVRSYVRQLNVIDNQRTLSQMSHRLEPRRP
Results filed as inconclusive are left out. Active and inactive are the calls of the source. Calls follow the shape of the dose curve; as a rule, active = well fitted inhibition curve with a large enough effect; inconclusive = small, poorly fitted or top-dose-only effect; inactive = no such curve, though single readings can be large or run the other way.
Your reply should match one of these outcome classes. active, inactive

Would you please look over these solved cases?
GET /call?item= CN(C)C(=O)c1cccc(-c2cnc3c(NC=O)cc(-c4ccccc4Cl)cn23)c1 returns the recorded outcome of this test.
inactive

GET /call?item= CCCCn1nnc(NC(=O)c2ccco2)n1 returns the recorded outcome of this test.
inactive

GET /call?item= O=C(O)CC1Sc2nc3ccccc3n2C1=O (stereo not drawn) returns the recorded outcome of this test.
inactive

GET /call?item= CC(NC1=CC(=O)c2cccnc2C1=O)C(O)c1ccccc1 (stereo not drawn) returns the recorded outcome of this test.
inactive

GET /call?item= O=C(C1=C(O)C(=O)N(c2nc3ccc(Cl)cc3s2)C1c1ccco1)c1ccco1 (stereo not drawn) returns the recorded outcome of this test.
inactive

GET /call?item= COc1ccc2noc3c2c1C(=O)c1ccccc1-3 returns the recorded outcome of this test.
inactive

***
GET /call?item= COc1cc2c(c(OC)c1OC)C(c1ccc(C)cc1)CC(=O)O2 (stereo not drawn) returns the recorded outcome of this test.
inactive

GET /call?item= CC(C)C(=O)Nc1nc2c(s1)CC(C(C)(C)C)CC2 (stereo not drawn) returns the recorded outcome of this test.
inactive

GET /call?item= CCOC(=O)C(C)Sc1nc(-c2ccco2)cc(C(F)(F)F)c1C#N (stereo not drawn) returns the recorded outcome of this test.
inactive

GET /call?item= CC(=O)Nc1sc(/C(C#N)=C\c2cccc(Cl)c2)nc1-c1ccc(C)cc1 returns the recorded outcome of this test.
inactive

GET /call?item= O=C(COc1ccccc1/C=C\c1[nH]c(=O)[nH]c(=O)c1[N+](=O)[O-])Nc1ccccc1 returns the recorded outcome of this test.
inactive

GET /call?item= CCCn1c(=O)n(C)c(=O)c2c(SCC(=O)NCc3ccco3)nc(C3CC3)nc21 returns the recorded outcome of this test.
inactive

GET /call?item= O=C(CC(c1ccccc1)c1cc(Cl)ccc1O)N1CCCC1 (stereo not drawn) returns the recorded outcome of this test.
inactive

GET /call?item= COc1ccc(-c2ccc(C(=O)NCCN3CCOCC3)c3occc23)c(C)c1 returns the recorded outcome of this test.
inactive

GET /call?item= O=S(=O)(NCC1(N2CCOCC2)CCCCC1)c1ccc(Cl)cc1C(F)(F)F returns the recorded outcome of this test.
inactive

GET /call?item= Cc1ccc(-n2nnnc2SCC(=O)NCC2(N3CCOCC3)CCCCC2)cc1 returns the recorded outcome of this test.
inactive

GET /call?item= O=C(Nc1nc(-c2cc(F)ccc2F)cs1)C1=COCCO1 returns the recorded outcome of this test.
inactive

GET /call?item= CC(C)(C)OC(=O)N1CCN(C(=O)c2[nH]c(C(F)(F)F)nc2-c2ccccc2)CC1 returns the recorded outcome of this test.
inactive

GET /call?item= CC1CCN(c2ccc3c(c2)S(=O)(=O)c2cccc(C(=O)NC[C@@H]4CCCO4)c2C3=O)CC1 returns the recorded outcome of this test.
inactive

GET /call?item= O=C(COC(=O)c1cccc(NS(=O)(=O)c2ccc(F)c(F)c2)c1)NC(=O)NC1CCCC1 returns the recorded outcome of this test.
inactive

GET /call?item= CCc1ccc(N(C(=O)c2csnn2)C(C(=O)NCc2ccccc2)c2ccco2)cc1 (stereo not drawn) returns the recorded outcome of this test.
active

GET /call?item= CCCCCCn1c(=O)[nH]c2nc3cc(N)c(C)cc3nc2c1=O returns the recorded outcome of this test.
inactive
